- Measured target: Serine/threonine-protein kinase B-raf (Homo sapiens, UniProt P15056, Y340D/Y341D)
- Sequence (P15056 whole entry, looked up, stated change not applied): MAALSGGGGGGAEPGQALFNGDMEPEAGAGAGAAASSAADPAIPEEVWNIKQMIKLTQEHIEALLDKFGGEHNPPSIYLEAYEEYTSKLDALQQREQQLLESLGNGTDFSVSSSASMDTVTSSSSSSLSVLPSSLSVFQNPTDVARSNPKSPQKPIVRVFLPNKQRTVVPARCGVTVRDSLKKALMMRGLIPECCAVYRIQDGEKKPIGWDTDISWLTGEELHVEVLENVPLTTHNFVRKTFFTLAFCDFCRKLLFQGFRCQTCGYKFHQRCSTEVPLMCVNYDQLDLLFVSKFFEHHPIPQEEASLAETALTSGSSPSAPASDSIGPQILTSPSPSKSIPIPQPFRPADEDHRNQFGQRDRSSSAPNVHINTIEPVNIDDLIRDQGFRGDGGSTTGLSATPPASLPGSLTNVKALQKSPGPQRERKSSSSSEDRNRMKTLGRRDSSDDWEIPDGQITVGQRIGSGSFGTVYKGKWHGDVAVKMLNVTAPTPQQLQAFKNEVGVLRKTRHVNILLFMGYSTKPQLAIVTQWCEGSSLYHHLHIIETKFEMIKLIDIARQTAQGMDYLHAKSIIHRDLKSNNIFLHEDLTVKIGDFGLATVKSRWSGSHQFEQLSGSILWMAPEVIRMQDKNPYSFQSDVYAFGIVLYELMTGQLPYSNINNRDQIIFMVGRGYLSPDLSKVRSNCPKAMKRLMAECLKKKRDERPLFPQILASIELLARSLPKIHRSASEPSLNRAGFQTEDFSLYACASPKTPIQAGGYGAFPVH
Readout kind: IC50

Example cases with answers are listed next.
CN(C)C(=O)Oc1ccc2c(=O)n(Cc3ccccc3F)c(=O)oc2c1	> 10 µM
CN(C)C(=O)Oc1ccc2c(=O)n(Cc3ccccc3NS(C)(=O)=O)c(=O)oc2c1	> 10 µM

Let us move to another entry and its IC50.
Checklist item: IC50 tested on Serine/threonine-protein kinase B-raf (Homo sapiens, UniProt P15056, Y340D/Y341D), entry CN(C)C(=O)Oc1ccc2c(=O)n(Cc3ccc(NS(C)(=O)=O)cc3)c(=O)oc2c1 , value?
> 10 µM
